System: Plasmodium falciparum
Experiment: In vitro minimum inhibitory concentration against Plasmodium falciparum NF54 over 40 hours
Assay type: functional
Assay Metric: MIC (µg/mL)

COc1ccc(-c2cc(-c3c[nH]c4ccccc34)nc(N3CCCCC3)n2)cc1 | 10

I = COc1ccc(-c2cc(-c3c[nH]c4ccccc34)nc(N3CCN(C)CC3)n2)cc1
II = c1ccc(-c2cc(-c3c[nH]c4ccccc34)nc(N3CCCCC3)n2)cc1
III = Clc1ccc(-c2cc(-c3c[nH]c4ccccc34)nc(N3CCOCC3)n2)cc1
Returns the items ordered by MIC, from maximum to minimum. Respond with the label ranking, as requested.
III, II, I
(III: 50 µg/mL, II: 10 µg/mL, I: 1 µg/mL)

A = CN1CCN(c2nc(-c3ccccc3)cc(-c3c[nH]c4ccccc34)n2)CC1
B = Cc1ccc(-c2cc(-c3c[nH]c4ccccc34)nc(N3CCCC3)n2)cc1
Between the entries labeled A and B , whose measured MIC is lower? Identify your pick by its label.
A

P = COc1ccc(-c2cc(-c3c[nH]c4ccccc34)nc(N3CCCC3)n2)cc1OC
Q = Cc1ccc(-c2cc(-c3c[nH]c4ccccc34)nc(N3CCOCC3)n2)cc1
// max by MIC over [ P , Q ] Identify your pick by its label.
Q

---

Tested on: Plasmodium falciparum
Experiment: In vitro minimum inhibitory concentration against Plasmodium falciparum NF54 over 40 hours
Format: functional
Assay Metric: MIC (µg/mL)

Examples with answers:
Clc1ccc(-c2cc(-c3c[nH]c4ccccc34)nc(N3CCCC3)n2)cc1 | 10
COc1ccc(-c2cc(-c3c[nH]c4ccccc34)nc(N3CCCC3)n2)cc1 | 10
COc1ccc(-c2cc(-c3c[nH]c4ccccc34)nc(N3CCN(C)CC3)n2)cc1OC | 1
c1ccc(-c2cc(-c3c[nH]c4ccccc34)nc(N3CCCC3)n2)cc1 | 10
Cc1ccc(-c2cc(-c3c[nH]c4ccccc34)nc(N3CCCCC3)n2)cc1 | 10

P = COc1ccc(-c2cc(-c3c[nH]c4ccccc34)nc(N3CCOCC3)n2)cc1
Q = CN1CCN(c2nc(-c3ccc(Cl)cc3)cc(-c3c[nH]c4ccccc34)n2)CC1
R = COc1ccc(OC)c(-c2cc(-c3c[nH]c4ccccc34)nc(N3CCCC3)n2)c1
Your job: order these 3 records by MIC, ascending. Respond with the label ranking, as requested.
Q, R, P

---

Test system: Plasmodium falciparum
Experiment: In vitro minimum inhibitory concentration against Plasmodium falciparum NF54 over 40 hours
Assay type: functional
Assay Metric: MIC (µg/mL)

A = c1ccc(-c2cc(-c3c[nH]c4ccccc34)nc(N3CCOCC3)n2)cc1
B = Clc1ccc(-c2cc(-c3c[nH]c4ccccc34)nc(N3CCCCC3)n2)cc1
C = COc1ccc(OC)c(-c2cc(-c3c[nH]c4ccccc34)nc(N3CCN(C)CC3)n2)c1
Could you please sort these 3 entries by MIC from high to low? Respond with the label ranking, as requested.
A, B, C
(A: 50 µg/mL, B: 10 µg/mL, C: 1 µg/mL)

a = Cc1ccc(-c2cc(-c3c[nH]c4ccccc34)nc(N3CCN(C)CC3)n2)cc1
b = COc1ccc(-c2cc(-c3c[nH]c4ccccc34)nc(N3CCCCC3)n2)cc1OC
Between the entries labeled a and b , whose measured MIC is lower? Identify your pick by its label.
a
(a: 1 µg/mL, b: 10 µg/mL)
